# System: A549
# method notes: NCI tumour cell line growth inhibition, 48 h
Calls of active or inactive are those of the source. Cut-off read from the data, not from the text of the source: active = GI50 up to about 1.1 µM and inactive = higher.
reported metric: GI50

Returns the measured GI50 for the input compound. Input: NCCSCc1ccccc1Cl
> 100 µM (inactive)

What value of measured GI50 is listed for CC1CCCCc2nc3c(c(=O)n21)CCCC3 (stereo not given) ?
> 100 µM (inactive)

Which GI50 reading was recorded for the compound CCCCC1Cc2cc(O)ccc2-c2nc3cc(O)ccc3n21.CCCCC1Cc2cc(O)ccc2-c2nc3ccc(O)cc3n21 (stereo not given) ?
16.3 µM (inactive)

Would you mind telling me what GI50 value was observed for CS(=O)(=O)c1ccc(/N=C/C=C/Nc2ccc(S(C)(=O)=O)cc2)cc1 ?
> 100 µM (inactive)

Could you share which GI50 value was measured for Cc1ccccc1NC(=O)CC(=O)N1N=C(N2c3ccccc3Sc3ccccc32)CC1c1ccccc1 (stereo not given) ?
> 100 µM (inactive)
